- tested.target: Cytochrome P450 2C9 (Homo sapiens) (UniProt P11712)
- Sequence (P11712 whole entry, looked up): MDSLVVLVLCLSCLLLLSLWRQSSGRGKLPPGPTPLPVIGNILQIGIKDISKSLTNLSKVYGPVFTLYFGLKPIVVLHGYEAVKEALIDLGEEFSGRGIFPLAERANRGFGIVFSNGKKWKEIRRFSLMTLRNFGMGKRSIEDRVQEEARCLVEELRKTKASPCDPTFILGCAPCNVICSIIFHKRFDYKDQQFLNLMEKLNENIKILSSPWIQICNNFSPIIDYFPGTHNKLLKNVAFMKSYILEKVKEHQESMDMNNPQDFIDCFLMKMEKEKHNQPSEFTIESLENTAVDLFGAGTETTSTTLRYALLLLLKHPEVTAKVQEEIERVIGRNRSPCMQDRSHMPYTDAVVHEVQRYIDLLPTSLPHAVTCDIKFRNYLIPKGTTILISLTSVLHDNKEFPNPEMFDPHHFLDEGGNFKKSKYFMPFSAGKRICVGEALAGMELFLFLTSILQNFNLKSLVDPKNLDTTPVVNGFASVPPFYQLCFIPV
- assay.remarks: blockers of cytochrome P450 2C9 activity – biochemical, luminescence, ADME assay, primary screen (AID 777)
- experimental.context: CYP2C9 Supersomes, luciferin-H conversion, at 5 µM
The whole screen tested about 96,000 compounds, of which about 19,000 (20%) were called active.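 Rule for the calls: active = blocking of liver enzyme CYP2C9 beyond about 50% at 5 µM (limit read from the data); inactive = the rest.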 Not all results are given here.
Return exactly one item of 1.0 (active), 0.0 (inactive)

Ask: Which outcome did this test record for the compound CC(C)C(=O)Nc1cccc(C(=O)Nc2ccc3c(c2)OCO3)c1 ?
Result: 1.0

Ask: Which outcome did this test record for the compound Cc1nc(SCC(=O)N2CC(=O)Nc3ccccc32)c2c(C)c(C)sc2n1 ?
Result: 1.0

Ask: Which outcome did this test record for the compound Cn1c(=O)n(C)c2cc(C(=O)Nc3ccc4c(c3)OCO4)ccc21 ?
Result: 0.0

Ask: Which outcome did this test record for the compound Cc1nc(SCC(=O)N2CCc3ccccc3C2)c2c(C)c(C)sc2n1 ?
Result: 1.0

Ask: Which outcome did this test record for the compound Cc1nnc(SCC(=O)N2CCc3ccccc3C2)s1 ?
Result: 0.0

###

- tested.target: Cytochrome P450 2C9 (Homo sapiens) (UniProt P11712)
- assay.remarks: blockers of cytochrome P450 2C9 activity – biochemical, luminescence, ADME assay, primary screen (AID 777)
- experimental.context: CYP2C9 Supersomes, luciferin-H conversion, at 5 µM, hits give high values
The campaign covered roughly 96,000 compounds. About 19,000 (20%) were called active. Only a sample is shown.
recorded.endpoint: inhibition (%)
Answer in %, number only, no unit symbol.

The recorded inhibition for entry OC(COc1cccc(OCC(O)CN2CCCC2)c1)CN1CCCC1 (stereo not drawn) equals 15.5

The recorded inhibition for entry O=C(O)Cc1ccc(NC(=O)c2cccs2)cc1 equals -6.9

The recorded inhibition for entry CCOC(=O)N1CCN(CC(=O)Nc2cc(C)nn2-c2nc3ccccc3s2)CC1 equals 25.8

The recorded inhibition for entry CCn1c(=N)c(S(=O)(=O)c2ccc(F)cc2)cc2c(=O)n3ccccc3nc21 equals -0.6

The recorded inhibition for entry O=C(C(c1ccccc1)c1ccccc1)N1CCN(CC(O)COc2ccccc2)CC1 (stereo not drawn) equals 65.6

The recorded inhibition for entry CCc1ccccc1NC(=O)c1cccs1 equals -6.7

The recorded inhibition for entry Cc1ccccc1-c1nnn(CC(=O)c2ccc(S(=O)(=O)N3CCCC3)cc2)n1 equals 9

The recorded inhibition for entry O=C(NC1CCN(Cc2ccccc2)CC1)c1ccccc1F equals 7.8

The recorded inhibition for entry CCOC(=O)N1CCN(CC(=O)c2c(C)[nH]c3ccccc23)CC1 equals -60.1

The recorded inhibition for entry Cc1ccc(-n2c(=O)c(C#N)cc3c(=O)n4ccccc4nc32)cc1C equals -2.8

The recorded inhibition for entry Cc1cc(C)n(C(=O)c2ccc(C)c(S(=O)(=O)N3CCOCC3)c2)n1 equals 66.3

The recorded inhibition for entry Cc1ccc(C(=O)N2CCN(C(=O)N3CCOCC3)CC2)cc1 equals 11.5

The recorded inhibition for entry CC/C(C)=N/Nc1nc2sc3c(c2c(=O)[nH]1)CC(C)(C)OC3 equals 30.9

The recorded inhibition for entry COc1ccc(NC(=O)Cn2c(-c3ccc(OC)cc3)cn(-c3ccc(C)cc3)c2=O)cc1 equals 10

The recorded inhibition for entry Cc1ccc(C(=O)NC2CCN(C(=O)N3CCOCC3)CC2)cc1 equals -6.4

The recorded inhibition for entry CCCCc1nc2ccccc2c(=O)n1NC(=O)c1c(O)c2cccc3c2n(c1=O)CC3 equals 20.8

The recorded inhibition for entry CCN(CC)C(=O)CSc1nnc(-c2ccc(S(=O)(=O)NCc3ccccc3Cl)cc2)o1 equals 25.8

The recorded inhibition for entry CCOc1cc(CNCCN(C)C)c(Cl)cc1OCC(=O)NCCc1ccccc1 equals 22.3

The recorded inhibition for entry CCN1CCN(C(=O)/C=C\C(=O)O)CC1 equals -4.2

The recorded inhibition for entry COc1ccc(N(CCC#N)S(=O)(=O)c2ccc(Cl)cc2)cc1 equals 19.8

The recorded inhibition for entry O=c1cc(CSc2ccc(Cl)cc2)nc(N2CCOCC2)[nH]1 equals 8.5

The recorded inhibition for entry COc1ccc(NC(=O)COC(=O)Cn2c(C)nc3ccccc32)cc1OC equals -9.8

The recorded inhibition for entry CCOC(=O)c1ccc(COC(=O)c2cc(=O)[nH]c3ccccc23)o1 equals -27.9

###

- tested.target: Cytochrome P450 2C9 (Homo sapiens) (UniProt P11712)
- assay.remarks: blockers of cytochrome P450 2C9 activity – biochemical, luminescence, ADME assay, primary screen (AID 777)
- experimental.context: CYP2C9 Supersomes, luciferin-H conversion, at 5 µM, hits give high values
Screen size: about 96,000 compounds; about 19,000 (20%) were called active. A selection follows.
recorded.endpoint: inhibition

The recorded inhibition for entry O=C(NCc1ccccn1)c1ccc2nc(-c3ccco3)c(-c3ccco3)nc2c1 equals 67.3% (active)

The recorded inhibition for entry Cc1cccc(NC(=O)COc2ccc(Br)cc2C)n1 equals -11% (inactive)

The recorded inhibition for entry CC(C)c1ccc(Nc2ncccc2C#N)cc1 equals 3.6% (inactive)

The recorded inhibition for entry CCc1nc2oc3ccccc3c(=O)c2c(=O)n1Cc1ccc(OC)cc1 equals 6.4% (inactive)

The recorded inhibition for entry Cc1cccn2c(=O)c3cc(C#N)c(=O)n(CCCN4CCOCC4)c3nc12 equals 47% (inactive)

The recorded inhibition for entry C=CCn1c(C2CC(=O)N(c3ccc(C)cc3)C2)nc2ccccc21 (stereo not drawn) equals 45.2% (inactive)

The recorded inhibition for entry CN(c1ccc(C(=O)NCc2ccccn2)cc1)S(C)(=O)=O equals -10.8% (inactive)

The recorded inhibition for entry COc1ccccc1N(C(=O)Cn1nnc2ccccc21)C(C(=O)NCc1ccco1)c1ccc(C)o1 (stereo not drawn) equals 70.3% (active)

###

- tested.target: Cytochrome P450 2C9 (Homo sapiens) (UniProt P11712)
- assay.remarks: blockers of cytochrome P450 2C9 activity – biochemical, luminescence, ADME assay, primary screen (AID 777)
- experimental.context: CYP2C9 Supersomes, luciferin-H conversion, at 5 µM
Screen size: about 96,000 compounds; about 19,000 (20%) were called active.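 Rule for the calls: active = blocking of liver enzyme CYP2C9 beyond about 50% at 5 µM (limit read from the data); inactive = the rest.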 A selection follows.
Return exactly one item of class 1 (active), class 0 (inactive)

Ask: Which outcome did this test record for the compound O=C(Nc1cccc2ccccc12)N1CCN(Cc2ccc3c(c2)OCO3)CC1 ?
Result: class 0

Ask: Which outcome did this test record for the compound O=C(/C=C/Nc1ccccc1OC(F)(F)F)C(F)(F)F ?
Result: class 0

Ask: Which outcome did this test record for the compound C=CCSc1nc2ccccc2[nH]1 ?
Result: class 0

Ask: Which outcome did this test record for the compound c1ccc(-c2nnc(SCc3nc4ccccc4[nH]3)o2)cc1 ?
Result: class 1

Ask: Which outcome did this test record for the compound O=C1N(Cc2ccc3c(c2)OCO3)c2ccccc2C1(O)c1c[nH]c2ccccc12 (stereo not given) ?
Result: class 1

###

- tested.target: Cytochrome P450 2C9 (Homo sapiens)
- assay.remarks: blockers of cytochrome P450 2C9 activity – biochemical, luminescence, ADME assay, primary screen (AID 777)
- experimental.context: CYP2C9 Supersomes, luciferin-H conversion, at 5 µM
Screen size: about 96,000 compounds; about 19,000 (20%) were called active.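 The calls were made as follows: active = blocking of liver enzyme CYP2C9 beyond about 50% at 5 µM (limit read from the data); inactive = the rest.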 Only a sample is shown.
Return exactly one item of active, inactive

Ask: Which outcome did this test record for the compound COc1cccc(-n2c(Cc3cc(=O)[nH]c(=O)[nH]3)nnc2SCC(=O)Nc2ccccc2)c1 ?
Result: inactive

Ask: Which outcome did this test record for the compound Nc1ccc(SCCN2C(=O)c3ccccc3C2=O)cc1 ?
Result: active

Ask: Which outcome did this test record for the compound O=C1c2ccccc2C(=O)N1CCC(c1ccccc1)c1ccco1 (stereo unspecified) ?
Result: inactive

Ask: Which outcome did this test record for the compound Cc1cc(NC(=O)CS(=O)(=O)c2cn(C)c3ccccc23)no1 ?
Result: inactive

Ask: Which outcome did this test record for the compound O=C(CSCc1ccccc1Cl)NNC(=O)c1ccccc1 ?
Result: inactive

Ask: Which outcome did this test record for the compound COc1ccc(/C=C2/S/C(=N/N=C3\CC4CCC3(C)C4(C)C)NC2=O)cc1 (stereo unspecified) ?
Result: inactive

Ask: Which outcome did this test record for the compound Cc1cc(C)n(-c2ccc(Cl)c(C(=O)O)n2)n1 ?
Result: inactive

Ask: Which outcome did this test record for the compound COc1ccc(-c2nn3c(-c4ccccc4)nnc3s2)cc1OC ?
Result: inactive

Ask: Which outcome did this test record for the compound N/C(=N\OC(=O)CCc1ccccc1)c1ccc(Cl)cc1 ?
Result: inactive

Ask: Which outcome did this test record for the compound Cc1ccc(S(=O)(=O)/N=C(\CN2CCOCC2)N2CCOCC2)cc1 ?
Result: inactive

Ask: Which outcome did this test record for the compound Cc1cc(Br)ccc1NC(=O)C1CCCO1 (stereo unspecified) ?
Result: inactive

Ask: Which outcome did this test record for the compound O=C(CSc1ccc(/C=N/NC(=O)c2cccc(F)c2)o1)Nc1ccccc1 ?
Result: active

Ask: Which outcome did this test record for the compound FC(F)(F)c1cc(C(F)(F)F)c2ccc(N3CCN(c4ccccc4)CC3)nc2n1 ?
Result: inactive

Ask: Which outcome did this test record for the compound CCOc1cccc(-c2nn3c(-c4ccccn4)nnc3s2)c1 ?
Result: inactive

Ask: Which outcome did this test record for the compound O=C(CSCc1ccc([N+](=O)[O-])cc1)Nc1cccc(C(=O)Nc2ccccc2C(=O)O)c1 ?
Result: active

Ask: Which outcome did this test record for the compound O=C1Nc2c(Br)cc(Br)cc2C1(O)N1CCOCC1 (stereo unspecified) ?
Result: inactive

Ask: Which outcome did this test record for the compound CC(C)(C)C(=O)Nc1ccc(C(=O)N/N=C/c2ccccc2OC(=O)c2ccc(Cl)cc2Cl)cc1 ?
Result: inactive

Ask: Which outcome did this test record for the compound COc1cc(-c2nn3c(-c4cccc(C)c4)nnc3s2)cc(OC)c1OC ?
Result: active

Ask: Which outcome did this test record for the compound Cc1cc(C)c(C#N)c(SCS(=O)c2ccc(C(C)(C)C)cc2)n1 (stereo unspecified) ?
Result: inactive

Ask: Which outcome did this test record for the compound C/C(=N/NC(=O)c1ccc(NC(=O)c2ccc(F)cc2)cc1)c1ccccc1 ?
Result: inactive

Ask: Which outcome did this test record for the compound Cc1cc(C)c(C#N)c(SCc2ccc3c(c2)OCO3)n1 ?
Result: active

Ask: Which outcome did this test record for the compound CN(C)Cc1ccccc1C1(O)c2ccccc2CSc2ccccc21 (stereo unspecified) ?
Result: active

Ask: Which outcome did this test record for the compound C(=N/N1CCN(c2ccccc2)CC1)/c1cccs1 ?
Result: inactive

Ask: Which outcome did this test record for the compound CC1=CC(C)(C)NC(=S)N1c1ccccc1 ?
Result: inactive

Ask: Which outcome did this test record for the compound Cc1ccc(-n2ccc(=O)c(C(=O)O)n2)cc1 ?
Result: active

Ask: Which outcome did this test record for the compound COc1ccc(OC)c2c1sc(=NC(=O)CN1C(=O)CCC1=O)n2C ?
Result: inactive

Ask: Which outcome did this test record for the compound Cc1ccn2cc(-c3nonc3C)cc2c1 ?
Result: inactive

Ask: Which outcome did this test record for the compound O=C(Nc1ccc2sc3ccccc3c(=O)c2c1)c1ccccc1Cl ?
Result: inactive

Ask: Which outcome did this test record for the compound Cc1cc(C)c(C#N)c(SCc2ccccc2C(=O)O)n1 ?
Result: inactive

Ask: Which outcome did this test record for the compound CCn1c(SCc2ccc(C)cc2)nnc1-c1nn(-c2ccccc2)ccc1=O ?
Result: inactive

Ask: Which outcome did this test record for the compound CC(=O)N1CSCC1C(=O)O (stereo unspecified) ?
Result: inactive

Ask: Which outcome did this test record for the compound CC(C)c1nc2oc3c(N4CCN(C)CC4)ncnc3c2c2c1CCC2 ?
Result: inactive

Ask: Which outcome did this test record for the compound COc1ccc(NC(=O)Cn2c(=O)n(Cc3ccco3)c(=O)c3ccccc32)cc1 ?
Result: inactive

Ask: Which outcome did this test record for the compound CN1CCCc2cc(C#N)c(=O)[nH]c21 ?
Result: inactive

Ask: Which outcome did this test record for the compound COC(=O)C1(S(=O)(=O)C2(C(=O)OC)CCCC2)CCCC1 ?
Result: inactive

Ask: Which outcome did this test record for the compound O=C(Cn1cc(/C=N/NC(=O)c2cccc(C(F)(F)F)c2)c2ccccc21)Nc1ccc(F)cc1 ?
Result: inactive

Ask: Which outcome did this test record for the compound Cc1cccc(-n2ncc(C#N)c2-n2cccc2)c1 ?
Result: inactive

Ask: Which outcome did this test record for the compound CCCC(=O)N1CCc2[nH]c3ccccc3c2C1 ?
Result: inactive

Ask: Which outcome did this test record for the compound CCc1cc2c(=O)c(-c3ccon3)c(N)oc2cc1OC ?
Result: inactive

Ask: Which outcome did this test record for the compound CN1CCC2(CC1)NC(=O)NC2=O ?
Result: inactive

Ask: Which outcome did this test record for the compound CSc1nnc2c(n1)OC(c1ccsc1)N(C(C)=O)c1ccccc1-2 (stereo unspecified) ?
Result: inactive

Origin of measurements: PubChem BioAssay AID777
